Just for reference, patent US20250042994A1 is where these values come from.

- Tested System: T1, Human CD19-his protein (human, UniProt P15391 20-291)
- T1 construct: bought protein; also called recombinant human CD19-His; CD19 full-length protein; not shown: His tag
- T1 sequence (looked up): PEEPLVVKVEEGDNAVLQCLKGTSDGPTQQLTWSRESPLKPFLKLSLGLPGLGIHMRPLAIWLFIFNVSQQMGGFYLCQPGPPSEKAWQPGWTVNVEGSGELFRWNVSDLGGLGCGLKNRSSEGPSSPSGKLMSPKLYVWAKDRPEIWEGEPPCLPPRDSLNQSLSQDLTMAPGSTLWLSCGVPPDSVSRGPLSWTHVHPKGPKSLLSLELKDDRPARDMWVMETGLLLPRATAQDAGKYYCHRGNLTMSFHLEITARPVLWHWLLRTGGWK
- Assay Name: ELISA, coated human CD19-His
Property Name: OD450 at 1.00 nM (OD450)

Binder | Property Name | Result
F3.121.4-L1H2 (antibody, mouse IgG1, kappa, V domains shown, humanized antibody of F3.121.4, VL1+VH2, murine IgG1 constant regions) VH: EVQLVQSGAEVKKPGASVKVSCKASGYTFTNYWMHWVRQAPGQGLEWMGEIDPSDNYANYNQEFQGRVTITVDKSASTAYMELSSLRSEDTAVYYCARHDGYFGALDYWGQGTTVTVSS VL: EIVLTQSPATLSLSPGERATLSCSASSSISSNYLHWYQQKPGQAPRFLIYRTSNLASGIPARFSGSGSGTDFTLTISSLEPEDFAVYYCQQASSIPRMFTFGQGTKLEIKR | OD450 at 1.00 nM | 2.68
F3.121.4-L1H1 (antibody, mouse IgG1, kappa, V domains shown, humanized antibody of F3.121.4, VL1+VH1, murine IgG1 constant regions) VH: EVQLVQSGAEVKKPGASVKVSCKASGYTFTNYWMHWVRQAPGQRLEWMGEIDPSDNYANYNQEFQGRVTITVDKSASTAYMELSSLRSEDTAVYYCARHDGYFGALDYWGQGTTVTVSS VL: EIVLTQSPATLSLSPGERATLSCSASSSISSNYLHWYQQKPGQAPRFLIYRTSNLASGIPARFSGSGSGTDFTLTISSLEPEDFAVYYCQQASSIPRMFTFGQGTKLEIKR | OD450 at 1.00 nM | 2.73
F3.121.4 (antibody, human IgG1, V domains shown, human-murine chimeric antibody, human IgG1 constant; also called chimeric antibody F3.121.4) VH: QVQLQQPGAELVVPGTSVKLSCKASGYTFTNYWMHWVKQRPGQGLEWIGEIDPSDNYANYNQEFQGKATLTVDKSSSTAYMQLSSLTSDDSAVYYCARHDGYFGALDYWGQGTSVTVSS VL: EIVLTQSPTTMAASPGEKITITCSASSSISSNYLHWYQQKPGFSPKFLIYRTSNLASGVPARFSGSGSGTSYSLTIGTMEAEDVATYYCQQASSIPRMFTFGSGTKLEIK | OD450 at 1.00 nM | 0.88
F3.121.4-L2H2 (antibody, mouse IgG1, kappa, V domains shown, humanized antibody of F3.121.4, VL2+VH2, murine IgG1 constant regions) VH: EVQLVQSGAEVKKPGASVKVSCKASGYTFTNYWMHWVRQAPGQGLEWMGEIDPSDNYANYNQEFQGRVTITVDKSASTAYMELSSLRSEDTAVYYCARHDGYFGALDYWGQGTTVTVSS VL: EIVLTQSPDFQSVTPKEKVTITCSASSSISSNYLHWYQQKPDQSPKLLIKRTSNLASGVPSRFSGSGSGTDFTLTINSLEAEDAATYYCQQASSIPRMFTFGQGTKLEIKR | OD450 at 1.00 nM | 2.42
